- Method: Pharmacokinetic study in rats after oral administration of SYD extract and its single and combined TCM extracts (UPLC-MS/MS of plasma)
- Condition description: male, Sprague-Dawley, rat, plasma, po, 4.73 g/kg, MRT(0–t), rat plasma, oral LJ + SN + GU extract 4.73 g/kg, n = 6
Tick Y if MRT last is 3 h or greater. Tick N if MRT last is less than 3 h.

Reference set (3 entries):
compound="O=C(/C=C/c1ccc(O)c(O)c1)O[C@@H]1C[C@](O)(C(=O)O)C[C@@H](O)[C@H]1O [Chlorogenic acid, chlorogenic acid]" assigned_category=Y
compound="COC(=O)C1=CO[C@@H](O[C@@H]2O[C@H](CO)[C@@H](O)[C@H](O)[C@H]2O)[C@@H]2[C@@H](C)[C@@H](O)C[C@H]12 [Loganin, loganin]" assigned_category=Y
compound="C[C@]1(OC(=O)/C=C/c2ccccc2)C[C@@H](O)[C@]2(O)C=CO[C@@H](O[C@@H]3O[C@H](CO)[C@@H](O)[C@H](O)[C@H]3O)[C@@H]21 [Harpagoside, harpagoside]" assigned_category=Y

Please examine the following record next.
Is the recorded value of MRT last equal to or greater than 3 h for this compound? O=C1C[C@@H](c2ccc(O[C@@H]3O[C@H](CO)[C@@H](O)[C@H](O)[C@H]3O)cc2)Oc2cc(O)ccc21 [Liquiritin, liquiritin]
N

---

- Method: Pharmacokinetic study in rats after oral administration of SYD extract and its single and combined TCM extracts (UPLC-MS/MS of plasma)
- Condition description: male, Sprague-Dawley, rat, plasma, po, 0.68 g/kg, Tmax, rat plasma, oral GU extract 0.68 g/kg, n = 6
Test readout: Tmax (min)
Form entry: value (min) — number only.

Consider the molecule O=C1C[C@@H](c2ccc(O[C@@H]3O[C@H](CO)[C@@H](O)[C@H](O)[C@H]3O)cc2)Oc2cc(O)ccc21 and give its measured Tmax.
4.8

---

- Method: Pharmacokinetic study in rats after oral administration of SYD extract and its single and combined TCM extracts (UPLC-MS/MS of plasma)
- Condition description: male, Sprague-Dawley, rat, plasma, po, 2.49 g/kg, Cmax, rat plasma, oral SN extract 2.49 g/kg, n = 6
Test readout: Cmax (ng/mL)
Form entry: value (ng/mL) — number only.

Consider the compound C[C@]1(OC(=O)/C=C/c2ccccc2)C[C@@H](O)[C@]2(O)C=CO[C@@H](O[C@@H]3O[C@H](CO)[C@@H](O)[C@H](O)[C@H]3O)[C@@H]21 [Harpagoside, harpagoside] and give its measured Cmax.
110

---

- Method: Pharmacokinetic study in rats after oral administration of SYD extract and its single and combined TCM extracts (UPLC-MS/MS of plasma)
- Condition description: male, Sprague-Dawley, rat, plasma, po, 2.14 g·kg^−1 extract, AUC(0–t), rat plasma, oral LJ + GU extract, n = 6
Test readout: AUC(0-t)

test_smiles=O=C(/C=C/c1ccc(O)c(O)c1)O[C@@H]1C[C@](O)(C(=O)O)C[C@@H](O)[C@H]1O test_readout=AUC(0-t) obs_value="1780 ng·h/mL"
test_smiles=COC(=O)C1=CO[C@@H](O[C@@H]2O[C@H](CO)[C@@H](O)[C@H](O)[C@H]2O)[C@@H]2[C@@H](C)[C@@H](O)C[C@H]12 test_readout=AUC(0-t) obs_value="1600 ng·h/mL"

Please look at the following compound next.
Consider the compound O=C1C[C@@H](c2ccc(O[C@@H]3O[C@H](CO)[C@@H](O)[C@H](O)[C@H]3O)cc2)Oc2cc(O)ccc21 and give its measured AUC(0-t).
180 ng·h/mL

---

- Method: Pharmacokinetic study in rats after oral administration of SYD extract and its single and combined TCM extracts (UPLC-MS/MS of plasma)
- Condition description: male, Sprague-Dawley, rat, plasma, po, 4.5 g·kg^−1 (extract), MRT(0–∞), rat plasma, oral LJ + SN extract, n = 6
Test readout: MRT inf (h)
Form entry: value (h) — number only.

Previously resolved entries follow.
compound="COc1ccc(CCO[C@@H]2O[C@H](CO[C@@H]3OC[C@H](O)[C@H](O)[C@H]3O)[C@@H](OC(=O)/C=C/c3ccc(O)c(OC)c3)[C@H](O[C@@H]3O[C@@H](C)[C@H](O)[C@@H](O)[C@H]3O)[C@H]2O)cc1O [Angoroside C, angoroside C]" test_readout="MRT inf" obs_value=5.22
compound="O=C(/C=C/c1ccc(O)c(O)c1)O[C@@H]1C[C@](O)(C(=O)O)C[C@@H](O)[C@H]1O [Chlorogenic acid, chlorogenic acid]" test_readout="MRT inf" obs_value=46.8
compound="C[C@]1(OC(=O)/C=C/c2ccccc2)C[C@@H](O)[C@]2(O)C=CO[C@@H](O[C@@H]3O[C@H](CO)[C@@H](O)[C@H](O)[C@H]3O)[C@@H]21 [Harpagoside, harpagoside]" test_readout="MRT inf" obs_value=46.3

Please look at the following compound next.
Consider the compound COC(=O)C1=CO[C@@H](O[C@@H]2O[C@H](CO)[C@@H](O)[C@H](O)[C@H]2O)[C@@H]2[C@@H](C)[C@@H](O)C[C@H]12 [Loganin, loganin] and give its measured MRT inf.
80

---

# Lookup of reported half-life keyed by entry
- Method: Pharmacokinetic study in rats after oral administration of SYD extract and its single and combined TCM extracts (UPLC-MS/MS of plasma)
- Condition description: male, Sprague-Dawley, rat, plasma, po, 4.73 g/kg, t1/2, rat plasma, oral LJ + SN + GU extract 4.73 g/kg, n = 6
Form entry: value (h) — number only.

Previously resolved entries follow.
molecule="C[C@]1(OC(=O)/C=C/c2ccccc2)C[C@@H](O)[C@]2(O)C=CO[C@@H](O[C@@H]3O[C@H](CO)[C@@H](O)[C@H](O)[C@H]3O)[C@@H]21 [Harpagoside, harpagoside]" test_readout=half-life quantity_unit=h obs_value=13.3
molecule=O=C(/C=C/c1ccc(O)c(O)c1)O[C@@H]1C[C@](O)(C(=O)O)C[C@@H](O)[C@H]1O test_readout=half-life quantity_unit=h obs_value=8.34
molecule="COc1ccc(CCO[C@@H]2O[C@H](CO[C@@H]3OC[C@H](O)[C@H](O)[C@H]3O)[C@@H](OC(=O)/C=C/c3ccc(O)c(OC)c3)[C@H](O[C@@H]3O[C@@H](C)[C@H](O)[C@@H](O)[C@H]3O)[C@H]2O)cc1O [Angoroside C, angoroside C]" test_readout=half-life quantity_unit=h obs_value=11.7
molecule=O=C1C[C@@H](c2ccc(O[C@@H]3O[C@H](CO)[C@@H](O)[C@H](O)[C@H]3O)cc2)Oc2cc(O)ccc21 test_readout=half-life quantity_unit=h obs_value=13.4

Please look at the following molecule next.
Consider the molecule COC(=O)C1=CO[C@@H](O[C@@H]2O[C@H](CO)[C@@H](O)[C@H](O)[C@H]2O)[C@@H]2[C@@H](C)[C@@H](O)C[C@H]12 and give its measured half-life.
6.83

---

- Method: Pharmacokinetic study in rats after oral administration of SYD extract and its single and combined TCM extracts (UPLC-MS/MS of plasma)
- Condition description: male, Sprague-Dawley, rat, plasma, po, 8.25 g/kg, Cmax, rat plasma, oral SYD extract 8.25 g/kg, n = 6
# Lookup of reported Cmax keyed by entry
Form entry: value (ng/mL) — number only.

Previously resolved entries follow.
compound=O=C1C[C@@H](c2ccc(O[C@@H]3O[C@H](CO)[C@@H](O)[C@H](O)[C@H]3O)cc2)Oc2cc(O)ccc21 obs_value=210
compound=O=C(/C=C/c1ccc(O)c(O)c1)O[C@@H]1C[C@](O)(C(=O)O)C[C@@H](O)[C@H]1O obs_value=1220
compound="COc1ccc(CCO[C@@H]2O[C@H](CO[C@@H]3OC[C@H](O)[C@H](O)[C@H]3O)[C@@H](OC(=O)/C=C/c3ccc(O)c(OC)c3)[C@H](O[C@@H]3O[C@@H](C)[C@H](O)[C@@H](O)[C@H]3O)[C@H]2O)cc1O [Angoroside C, angoroside C]" obs_value=180
compound=COC(=O)C1=CO[C@@H](O[C@@H]2O[C@H](CO)[C@@H](O)[C@H](O)[C@H]2O)[C@@H]2[C@@H](C)[C@@H](O)C[C@H]12 obs_value=770

Consider the compound C[C@]1(OC(=O)/C=C/c2ccccc2)C[C@@H](O)[C@]2(O)C=CO[C@@H](O[C@@H]3O[C@H](CO)[C@@H](O)[C@H](O)[C@H]3O)[C@@H]21 [Harpagoside, harpagoside] and give its measured Cmax.
70

---

# Lookup of reported AUC(0-inf) keyed by entry
- Method: Pharmacokinetic study in rats after oral administration of SYD extract and its single and combined TCM extracts (UPLC-MS/MS of plasma)
- Condition description: male, Sprague-Dawley, rat, plasma, po, 4.01 g·kg^−1 (extract), AUC(0–∞), rat plasma, oral LJ + AS + GU extract, n = 6
Form entry: value (ng·h/mL) — number only.

test_smiles=O=C1C[C@@H](c2ccc(O[C@@H]3O[C@H](CO)[C@@H](O)[C@H](O)[C@H]3O)cc2)Oc2cc(O)ccc21 obs_value=260

Please look at the following compound next.
Consider the compound COC(=O)C1=CO[C@@H](O[C@@H]2O[C@H](CO)[C@@H](O)[C@H](O)[C@H]2O)[C@@H]2[C@@H](C)[C@@H](O)C[C@H]12 and give its measured AUC(0-inf).
5350
